# MIC80 listing for each entry below
- Test system: Aspergillus fumigatus
- testDetails: Antifungal activity against Aspergillus fumigatus assessed as growth inhibition by NCCLS microbroth dilution method
- Format: functional

smiles: Cc1cc(=O)oc2cc(Oc3ccc([N+](=O)[O-])cn3)ccc12
MIC80: > 64 µg/mL
//
smiles: Cc1cc(=O)oc2cc(Oc3ccc(NC(=O)c4ccncc4)cn3)ccc12
MIC80: > 64 µg/mL

Pending molecule:
Look at this molecule and give its reported MIC80. "C[C@@H]1[C@H](O)[C@@H](C)/C=C/C=C/C=C/C=C/C=C/C=C/C=C/[C@H](O[C@@H]2O[C@H](C)[C@@H](O)[C@H](N)[C@@H]2O)C[C@@H]2O[C@](O)(C[C@@H](O)C[C@@H](O)[C@H](O)CC[C@@H](O)C[C@@H](O)CC(=O)O[C@H]1C)C[C@H](O)[C@H]2C(=O)O"
1 µg/mL
